Measured growth, listed per entry.
Tested on: TK-10 renal
method_notes: NCI-60 one-dose screen, 48 h (100 = growth as untreated, 0 = no growth, -100 = all killed)
applied_conditions: 10 µM unless noted
The panel holds about 83,000 compounds, 20% with a hit somewhere; the sample as a whole holds those more often.
result_type: growth (%)

INSERT INTO assay_data (smiles_entry, result_type, unit, observed_measurement) VALUES
  ('COc1ccc(-c2nc3sc(-c4cc(OC)c(OC)c(OC)c4)nn3c2/C=C2/C(=O)Nc3ccc(F)cc32)cc1', 'growth', '%', -52.2),
  ('CN(C[C@H]1Cc2c(cccc2N2CCN(Cc3ccccn3)CC2)CN1)[C@H]1CCCc2cccnc21', 'growth', '%', 58.7),
  ('O=c1cc/c(=N\Nc2ccccc2)c(=O)/c1=N/Nc1ccccc1', 'growth', '%', 170),
  ('O=[N+]([O-])c1ccc(C(c2ccccc2)c2ccccc2)cc1', 'growth', '%', 96.4),
  ('c1ccc(-c2nnc(-c3ccccn3)s2)nc1', 'growth', '%', 123),
  ('NC(=O)CCCN1C/C(=C\c2ccccc2)C(=O)c2ccccc21', 'growth', '%', 95),
  ('O=[N+]([O-])c1ccc(OCCCOc2ccccc2)cc1', 'growth', '%', 97.5),
  ('COc1ccc(-c2ccc(-c3ccc(C(=N)N)cn3)s2)cc1OC', 'growth', '%', 128),
  ('COc1cc2c(cc1OCCCN1CCN(CCCn3c4ccccc4c4ccccc43)CC1)N=C[C@@H]1CCCN1C2=O', 'growth', '%', -79.6),
  ('C/C(=C\c1ccc(OCC(=O)O)c(Cl)c1Cl)[N+](=O)[O-]', 'growth', '%', 113),
  ('COc1ccc2[nH]c(C(=O)OCc3ccc4c(Cl)cc(Cl)c(O)c4n3)cc2c1', 'growth', '%', -98.1),
  ('Cn1c(=O)cc(NC(=O)CN2CCN(c3cc4c(cc3F)c(=O)c(C(=O)O)cn4C3CC3)CC2)[nH]c1=O', 'growth', '%', 105);

* * *

System: U251 CNS
method_notes: NCI-60 one-dose screen, 48 h (100 = growth as untreated, 0 = no growth, -100 = all killed)
applied_conditions: 10 µM unless noted
Compounds without any hit were thinned out: in the full panel of roughly 83,000, 20% have a hit. Active and inactive are the calls of the source. How the source made its calls: active means growth percent below 10; inactive means the rest.
Here, each record is paired with measured growth data.
result_type: growth

INSERT INTO results (smiles_entry, observed_measurement) VALUES
  ('COc1ccc(-c2nc(/C=C3/C(=O)Nc4ccc(F)cc43)c3ccccn23)cc1', '88.3% (inactive)'),
  ('CCCCCCCCCCCCCCCCNC(=O)OC(C)C', '14.1% (inactive)'),
  ('Clc1cccc(-c2cc(-c3ccc4c(c3)OCCO4)[nH]n2)c1', '27.4% [25 µM] (inactive)');

* * *

The following compounds are shown together with reported growth values.
Tested on: UACC-257 melanoma
method_notes: NCI-60 one-dose screen, 48 h (100 = growth as untreated, 0 = no growth, -100 = all killed)
applied_conditions: 10 µM unless noted
Compounds without any hit were thinned out: in the full panel of roughly 83,000, 20% have a hit. Calls of active or inactive are those of the source. How the source made its calls: active means growth percent below 10; inactive means the rest.
result_type: growth

INSERT INTO assay_data (smiles_entry, result_type, observed_measurement) VALUES
  ('COc1ccc(S(=O)(=O)Nc2cc(/C=C\c3cc(OC)c(OC)c(OC)c3)cc(OC)c2OC)cc1', 'growth', '51.3% (inactive)'),
  ('COc1ccc2c(c1)[nH]c(=O)c1c3cc(OC)ccc3cn21', 'growth', '72.5% (inactive)'),
  ('CCN(CC)CCOc1ccc(/C(=C(/C)c2ccccc2)c2ccc(OC(C)=O)cc2)cc1', 'growth', '120% (inactive)'),
  ('S=C1CC(=S)NC(=S)N1', 'growth', '105% (inactive)'),
  ('N=C(N)c1ccc(-c2ccc(-c3ccc4ccccc4c3)s2)cc1', 'growth', '106% (inactive)'),
  ('CCN(CC)c1ccc2[nH]c3c(C(N)=O)cc(=O)c(=O)c=3oc2c1', 'growth', '-29.2% (active)'),
  ('O=C(Nc1ccc2c(c1)OCCO2)C(=O)c1c[nH]c2ccccc12', 'growth', '70.7% (inactive)'),
  ('O=C1C(Cl)=C(Nc2ccccn2)C(=O)c2ccccc21', 'growth', '-10% (active)'),
  ('CCOc1cc2c(Cl)ncnc2c(OCC)c1OCC', 'growth', '-17% (active)'),
  ('O=[N+]([O-])c1cc(Cl)c2[nH]c3c(Cl)cc([N+](=O)[O-])cc3c2c1', 'growth', '-52.2% (active)');
